Read-out: Matrix Metallopeptidase 1 (MMP1), MMP1 (gene 4312)
Experiment: BSK_MyoF_MMP1: BioMAP Diversity Plus: MyoF Assay for Matrix Metallopeptidase 1 (MMP1) Biomarker Activity (AID 2284268)
Conditions: primary human lung fibroblasts
Activity calls are given as the source filed them. The calls were made as follows: active = hit-call score of the fitted dose curve at least 0.9, where 1 is the maximum; inactive = score below 0.9.
Hi! Could you answer with just one of these? TRUE (active), FALSE (inactive)

Here are 5 compounds together with their reported answers.
chemical_structure=O=C(Nc1ccccc1SSc1ccccc1NC(=O)c1ccccc1)c1ccccc1 group=FALSE
chemical_structure=O=C(Cl)c1cc(C(=O)Cl)cc(C(=O)Cl)c1 group=TRUE
chemical_structure=c1ccc2c(c1)ccc1cc3c(ccc4ccccc43)cc12 group=FALSE
chemical_structure=CCO[Si](CCCN=C=O)(OCC)OCC group=FALSE
chemical_structure=C/C=C\C/C=C/CCCCCCCCOC(C)=O group=FALSE

Below: the item to evaluate.
## Input Hello, I am checking results. What call was entered for CCCCNc1ccc(NCCCC)c2c1C(=O)c1ccccc1C2=O ?
## Output FALSE

----------
Biological target: chimpanzee Androgen Receptor (AR), AR (gene 747460) (UniProt O97775)
Sequence (O97775 whole entry, looked up): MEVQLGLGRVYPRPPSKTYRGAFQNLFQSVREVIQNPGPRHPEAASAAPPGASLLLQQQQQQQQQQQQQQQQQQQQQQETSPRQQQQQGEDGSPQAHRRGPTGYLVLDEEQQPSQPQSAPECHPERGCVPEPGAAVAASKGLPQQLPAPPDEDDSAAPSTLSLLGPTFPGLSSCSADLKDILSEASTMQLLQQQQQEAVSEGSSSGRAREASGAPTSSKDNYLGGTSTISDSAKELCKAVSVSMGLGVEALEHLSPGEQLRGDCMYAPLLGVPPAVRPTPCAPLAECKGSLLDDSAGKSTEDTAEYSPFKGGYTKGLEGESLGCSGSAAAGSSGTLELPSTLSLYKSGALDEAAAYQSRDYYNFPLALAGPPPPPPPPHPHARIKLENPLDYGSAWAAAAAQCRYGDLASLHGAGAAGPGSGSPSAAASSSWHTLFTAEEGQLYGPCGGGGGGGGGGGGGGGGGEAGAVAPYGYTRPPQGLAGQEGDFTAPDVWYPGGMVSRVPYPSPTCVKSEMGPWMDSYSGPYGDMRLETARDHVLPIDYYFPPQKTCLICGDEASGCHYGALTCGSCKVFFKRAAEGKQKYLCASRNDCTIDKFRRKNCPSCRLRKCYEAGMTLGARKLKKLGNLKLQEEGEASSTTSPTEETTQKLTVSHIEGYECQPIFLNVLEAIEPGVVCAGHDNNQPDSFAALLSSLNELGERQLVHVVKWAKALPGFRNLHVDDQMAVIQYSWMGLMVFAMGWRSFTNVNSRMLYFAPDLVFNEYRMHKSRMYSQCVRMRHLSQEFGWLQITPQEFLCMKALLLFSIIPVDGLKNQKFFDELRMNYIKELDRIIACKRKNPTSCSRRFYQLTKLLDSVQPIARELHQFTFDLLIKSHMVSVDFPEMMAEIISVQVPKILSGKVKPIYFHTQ
Experiment: NVS_NR_cAR: NovaScreen (NVS) Nuclear Receptor Binding Assay for chimpanzee Androgen Receptor (AR) (AID 2283346);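 also: radioligand displacement from AR measured by scintillation counting in a cell-free assay; a loss of bound radioligand signal versus DMSO counts as binding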
Records with an inconclusive call do not appear. Calls of active or inactive are those of the source. The calls were made as follows: active = hit-call score of the fitted dose curve at least 0.9, where 1 is the maximum; inconclusive = response in the unintended direction; inactive = score below 0.9.
Hi! Could you answer with just one of these? active, inactive

chemical_structure=CCCOC(=O)CCCCC(=O)OCCC group=inactive

## Input Hello, I am checking results. What call was entered for c1ccc2c(c1)ccc1cc3c(ccc4ccccc43)cc12 ?
## Output inactive

## Input Hello, I am checking results. What call was entered for Oc1ccc(Cl)cc1Cc1cc(Cl)ccc1O ?
## Output active

## Input Hello, I am checking results. What call was entered for OC1CCCCCCCCCCC1 ?
## Output inactive

## Input Hello, I am checking results. What call was entered for CCN(CCC#N)c1ccc(N=Nc2c(Cl)cc([N+](=O)[O-])cc2Cl)cc1 ?
## Output active

## Input Hello, I am checking results. What call was entered for CN(C)c1ccc(N=Nc2ccccc2C(=O)O)cc1 ?
## Output inactive

----------
Assay: ATG_DR4_LXR_CIS: Attagene CIS-FACTORIAL HepG2 Assay for human Liver X Receptor (LXR), DR4 submotif (AID 2282929)
Conditions: HepG2 Attagene DR4 cis-reporter, mRNA transcription; actives raise or lower the signal
Procedure: ATG_CIS is a cell-based, multiplexed-readout assay that uses HepG2, a human liver cell line, with measurements taken at 24 hours after chemical dosing in a 24-well plate.ATG_DR4_LXR_CIS is one of 52 assay component(s) measured or calculated from the ATG_CIS assay. […] This assay endpoint, ATG_DR4_LXR_CIS, was analyzed with bidirectional fitting relative to DMSO as the negative control and baseline of activity. […]
Activity calls are given as the source filed them. The calls were made as follows: active = hit-call score of the fitted dose curve at least 0.9, where 1 is the maximum; inactive = score below 0.9.
Hi! Could you answer with just one of these? active, inactive

## Input Hello, I am checking results. What call was entered for O=S(=O)(O)CC(O)CCl (stereo not given) ?
## Output inactive

## Input Hello, I am checking results. What call was entered for CC(=O)OCc1ccco1 ?
## Output inactive

----------
Assay: CEETOX_H295R_OHPROG: CeeTox H295R High-throughput Steroidogenesis Assay for OH-Progesterone (OHPROG) (AID 2283435)
Details: actives raise or lower the signal
Calls of active or inactive are those of the source. How the source made its calls: active means hit-call score of the fitted dose curve at least 0.9, where 1 is the maximum; inactive means score below 0.9.
Hi! Could you answer with just one of these? 1 = active, 0 = inactive

Here are 10 compounds together with their reported answers.
compound=CN(C)c1ccc(C(=N)c2ccc(N(C)C)cc2)cc1 group=0
compound=COC(=O)c1c(C)cc(O)c(C)c1O group=1
compound=CCCCCCCCCCCCCOP(=O)(O)O group=0
compound=Oc1ccc(Cl)cc1Cc1cc(Cl)ccc1O group=0
compound="CO[Si](CCC1CCC2OC2C1)(OC)OC (stereo unspecified)" group=0
compound=O=C(Nc1ccccc1SSc1ccccc1NC(=O)c1ccccc1)c1ccccc1 group=0
compound=C=COCCCC group=0
compound=COc1ccc2nc(N)sc2c1 group=1
compound=COCc1c(C(C)C)nc(C(C)C)c(/C=C/[C@@H](O)C[C@@H](O)CC(=O)O)c1-c1ccc(F)cc1 group=1
compound=CCOC(=O)Cc1cccc2ccccc12 group=1

Below: the item to evaluate.
## Input Hello, I am checking results. What call was entered for O=C(C=Cc1ccccc1)OCc1ccccc1 ?
## Output 1

----------
Target: Hepatocyte nuclear factor 3-beta (Homo sapiens)
Experiment: ATG_FoxA2_CIS: Attagene CIS-FACTORIAL HepG2 Assay for human Forkhead box A2 (FOXA2) (AID 2282942)
Details: HepG2 cis-reporter transcription factor activity, 24 h; actives raise or lower the signal
Active and inactive are the calls of the source. Rule for the calls: active = hit-call score of the fitted dose curve at least 0.9, where 1 is the maximum; inactive = score below 0.9.
parameter-measured: outcome

compound="C=CC(C)(CCC=C(C)C)OC(=O)C(C)C (stereo unspecified)" parameter_measured=outcome measured=inactive
compound=CC(C)C1=CC2=CC[C@@H]3[C@](C)(CCC[C@@]3(C)C(=O)O)[C@H]2CC1 parameter_measured=outcome measured=inactive
compound=Cc1ccc(N/N=c2\c(=O)cc/c(=N/Nc3ccc(S(=O)(=O)O)cc3)c2=O)c(C)c1 parameter_measured=outcome measured=inactive
compound=Nc1cccc(C(F)(F)F)c1 parameter_measured=outcome measured=inactive
compound=COc1c2ccoc2cc2oc(=O)ccc12 parameter_measured=outcome measured=inactive

Provide each entry's outcome from the list below.
1. COC(=O)/C=C/C(C)=C\C=C\C(C)=C\C=C\C=C(C)\C=C\C=C(C)\C=C\C(=O)O
2. O=C1CCCC(=O)O1
3. CCOC(=O)N1CCC(=C2c3ccc(Cl)cc3CCc3cccnc32)CC1
4. COCc1c(C(C)C)nc(C(C)C)c(/C=C/[C@@H](O)C[C@@H](O)CC(=O)O)c1-c1ccc(F)cc1

## Output
1: inactive; 2: inactive; 3: inactive; 4: inactive

Provide each entry's outcome from the list below.
1. O=c1cc[nH]c(=S)[nH]1
2. COC(=O)c1c(C)cc(O)c(C)c1O

## Output
1. inactive
2. inactive

----------
Molecular target: Retinoic acid receptor RXR-alpha (Homo sapiens)
Assay: OT_NURR1_NURR1RXRa_0480: Odyssey Thera (OT) 8-hour HEK293T Protein Complementation Assay for Nurr1/retinoid X receptor (RXR) (AID 2283385)
Inconclusive results are not listed. The source made the active and inactive calls. The calls were made as follows: active = hit-call score of the fitted dose curve at least 0.9, where 1 is the maximum; inconclusive = response in the unintended direction; inactive = score below 0.9.
Hi! Could you answer with just one of these? y = active, n = inactive

compound=CC/C=C\C/C=C\C/C=C\CCCCCCCC(=O)O group=n
compound=CC(C)(C)c1ccc(OC(=O)c2ccccc2O)cc1 group=y
compound=CCCCCCCOC(=O)CCC group=n

## Input Hello, I am checking results. What call was entered for O=C(C=Cc1ccccc1)OCc1ccccc1 ?
## Output n

## Input Hello, I am checking results. What call was entered for O=C(OCC1CCC2OC2C1)C1CCC2OC2C1 (stereo unspecified) ?
## Output n

## Input Hello, I am checking results. What call was entered for O=C(C(Cl)Cl)N1CCOC12CCCCC2 ?
## Output n

## Input Hello, I am checking results. What call was entered for NC(=O)c1ccccc1O ?
## Output n

## Input Hello, I am checking results. What call was entered for CC(C)(C)c1ccc(N)cc1 ?
## Output n

## Input Hello, I am checking results. What call was entered for CCCCCCCC/C=C\CCCCCCCC(=O)OCCO ?
## Output y

## Input Hello, I am checking results. What call was entered for CC(C)C1=CC2=CC[C@@H]3[C@](C)(CCC[C@@]3(C)C(=O)O)[C@H]2CC1 ?
## Output n

## Input Hello, I am checking results. What call was entered for CN(C)c1ccc(C(=N)c2ccc(N(C)C)cc2)cc1 ?
## Output y

## Input Hello, I am checking results. What call was entered for CO[Si](OC)(OC)c1ccccc1 ?
## Output n

## Input Hello, I am checking results. What call was entered for CC(C)=CCC[C@H](C)CCO ?
## Output y

## Input Hello, I am checking results. What call was entered for CNC(=S)NN ?
## Output y

## Input Hello, I am checking results. What call was entered for CC=C1CC2C=CC1C2 (stereo unspecified) ?
## Output n

## Input Hello, I am checking results. What call was entered for C=C[Si](C)(C)O[Si](C)(C)C=C ?
## Output n

## Input Hello, I am checking results. What call was entered for CC(CC=O)CCCC(C)(C)O (stereo unspecified) ?
## Output n

## Input Hello, I am checking results. What call was entered for CCCCCCCCCCOS(=O)(=O)O ?
## Output n

## Input Hello, I am checking results. What call was entered for O=C(O)CCCC[C@@H]1SC[C@@H]2NC(=O)N[C@@H]21 ?
## Output n

## Input Hello, I am checking results. What call was entered for NC(CO)(CO)CO ?
## Output n

## Input Hello, I am checking results. What call was entered for O=S(=O)(O)c1ccccc1C=Cc1ccc(-c2ccc(C=Cc3ccccc3S(=O)(=O)O)cc2)cc1 ?
## Output n
